# experimental system: recombinant Mcl-1 (residues 172-327) (Homo sapiens (Human))
# method description: Bak peptide binding assay, fluorescence polarization anisotropy competition (FITC-Bak), Mcl-1
pKi: −log10 of the molar value.
reported endpoint: pKi

{"columns": ["compound", "reading"],
 "data": [
  ["Cc1cc(OCCCc2cn(CCC(=O)NS(=O)(=O)c3ccccc3)c3cc(Cl)ccc23)cc(C)c1Cl [Example 37]", "6.52 to 7.00"]
]}

###

# experimental system: recombinant Mcl-1 (residues 172-327) (Homo sapiens (Human))
# method description: Bak peptide binding assay, fluorescence polarization anisotropy competition (FITC-Bak), Mcl-1
# condition notes: Table 3, binned ranges; FITC-Bak peptide 10 nM, Mcl-1 14 nM; read-out: Ki for inhibition of Mcl-1

{"columns": ["compound", "Ki"],
 "data": [
  ["Cc1cc(OCCCc2c(C)n(CCC(=O)NS(C)(=O)=O)c3cc(Cl)ccc23)cc(C)c1Cl", "≤ 100 nM"],
  ["Cc1cc(OCCCc2c(C)n(CCC(=O)O)c3c(-c4c(C)nn(Cc5ccccn5)c4C)cccc23)cc(C)c1Cl", "≤ 100 nM"],
  ["Cc1cc(OCCCc2c(C(F)(F)F)n(Cc3cccc(C(=O)O)c3)c3c(-c4c(C)nn(C)c4C)cccc23)cc(C)c1Cl", "≤ 100 nM"],
  ["O=C(O)CCn1cc(CCCOc2cccc3ccccc23)c2c(Cl)cccc21", "1000 to 9990 nM"],
  ["Cc1cc(OCCCc2c(C)n(CC(=O)O)c3c(-c4c(C)nn(C)c4C)c(Cl)ccc23)cc(C)c1Cl", "≤ 100 nM"],
  ["Cc1cnccc1-c1cccc2c(CCCOc3cc(C)c(Cl)c(C)c3)c(C)n(CCC(=O)NS(C)(=O)=O)c12", "≤ 100 nM"],
  ["Cc1cc(OCCCc2c(C)n(CCC(=O)NS(=O)(=O)Cc3ccccc3)c3c(-c4c(C)nn(C)c4C)cccc23)cc(C)c1Cl", "≤ 100 nM"],
  ["CCn1nc(C)c(-c2cccc3c(CCCOc4cc(C)c(Cl)c(C)c4)c(C)n(CCC(=O)NS(=O)(=O)c4ccccc4)c23)c1C", "≤ 100 nM"],
  ["Cc1cc(OCCCc2cn(C(C(=O)O)c3ccccc3)c3ccccc23)cc(C)c1Cl (racemic)", "501 to 999 nM"],
  ["Cc1cc(OCCCc2cn(CCC(=O)O)c3c(-c4c(COc5ccccc5)nn(C)c4C)cccc23)cc(C)c1Cl", "101 to 299 nM"],
  ["CCn1nc(C)c(-c2cccc3c(CCCOc4cc(C)c(Cl)c(C)c4)c(C)n(CCC(=O)O)c23)c1C", "≤ 100 nM"],
  ["O=C(O)CCn1cc(CCCOc2cccc3ccccc23)c2ccccc21", "1000 to 9990 nM"],
  ["Cc1cc(OCCCc2c(C)n(Cc3cccc(C(=O)NS(=O)(=O)c4ccncc4)c3)c3c(-c4c(C)nn(C)c4C)cccc23)cc(C)c1Cl", "101 to 299 nM"],
  ["Cc1cc(OCCCc2c(C)n(CC(=O)O)c3c(-c4ccnn4C)cccc23)cc(C)c1Cl", "101 to 299 nM"],
  ["Cc1cc(OCCCc2c(C)n(Cc3cccc(C(=O)O)c3)c3c(-c4c(C)n[nH]c4C)cccc23)cc(C)c1Cl", "≤ 100 nM"],
  ["Cc1cc(OCCCc2c(C)n(CCC(=O)O)c3c(-c4c(C)nn(Cc5ncccn5)c4C)cccc23)cc(C)c1Cl", "1000 to 9990 nM"],
  ["CCC(C(=O)NS(C)(=O)=O)n1cc(CCCOc2cc(C)c(Cl)c(C)c2)c2ccccc21 (racemic)", "501 to 999 nM"],
  ["Cc1cc(OCCCc2c(C(F)(F)F)n(CC(=O)N3CCN(CC(=O)O)CC3)c3c(-c4c(C)nn(C)c4C)cccc23)cc(C)c1Cl", "≤ 100 nM"],
  ["Cc1cc(OCCCc2c(C(F)(F)F)n(CC(=O)O)c3c(-c4c(C)nn(C)c4C)cccc23)cc(C)c1Cl", "≤ 100 nM"],
  ["Cc1cc(OCCCc2c(C)n(CCC(=O)NS(=O)(=O)c3ccncc3)c3c(-c4c(C)nn(C)c4C)cccc23)cc(C)c1Cl", "≤ 100 nM"],
  ["Cc1cc(OCCCc2c(C(F)(F)F)n(CCc3ccc(C(=O)O)cc3)c3c(-c4c(C)nn(C)c4C)cccc23)cc(C)c1Cl", "≤ 100 nM"],
  ["Cc1cc(OCC(C)Cc2cn(CCC(=O)O)c3ccccc23)cc(C)c1Cl (stereo not shown)", "1000 to 9990 nM"],
  ["Cc1cc(OCCCc2c(C)n(CCC(=O)O)c3c(-c4c(C)n[nH]c4C)cccc23)cc(C)c1Cl", "≤ 100 nM"],
  ["Cc1cc(OCCCc2c(C)n(CCC(=O)NS(=O)(=O)c3ccc4ccccc4c3)c3c(-c4c(C)nn(C)c4C)cccc23)cc(C)c1Cl", "≤ 100 nM"],
  ["Cc1cc(OCCCc2c(C)n(Cc3cccc(C(=O)NS(C)(=O)=O)c3)c3c(-c4c(C)nn(C)c4C)cccc23)cc(C)c1Cl", "≤ 100 nM"],
  ["CS(=O)(=O)NC(=O)CCn1cc(CCCOc2cccc3ccccc23)c2ccccc21", "1000 to 9990 nM"],
  ["Cc1cc(OCCCc2c(C)n(CCC(=O)O)c3c(-c4c(C)nn(CCN5CCOCC5)c4C)cccc23)cc(C)c1Cl", "≤ 100 nM"],
  ["Cc1cc(OCCCc2cn(C(CC(=O)O)c3ccccc3)c3ccccc23)cc(C)c1Cl (racemic)", "501 to 999 nM"]
]}

###

# experimental system: Bcl-xL (residues 1-209, loop 45-86 deleted) (Homo sapiens (Human), UniProt Q07817, DEL45-86)
# Sequence (Q07817 other isoform, or with tags, fused parts or gaps del 45-86): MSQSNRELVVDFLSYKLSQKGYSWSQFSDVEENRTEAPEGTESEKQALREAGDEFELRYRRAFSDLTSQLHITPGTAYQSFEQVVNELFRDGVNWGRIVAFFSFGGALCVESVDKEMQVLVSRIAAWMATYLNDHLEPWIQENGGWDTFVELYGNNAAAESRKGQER
# method description: Bak peptide binding assay, fluorescence polarization anisotropy competition (FITC-Bak), Bcl-xL selectivity
# condition notes: Table 4; FITC-Bak peptide 10 nM, Bcl-xL 4 nM
pKi: −log10 of the molar value.
reported endpoint: pKi

{"columns": ["given smiles", "reading"],
 "data": [
  ["Cc1cc(OCCCc2c(C)n(Cc3cccc(C(=O)O)c3)c3c(-c4c(C)n[nH]c4C)cccc23)cc(C)c1Cl", 5.33],
  ["Cc1cc(OCCCc2cn(CCC(=O)NS(C)(=O)=O)c3cc(Cl)ccc23)cc(C)c1Cl", 5.00],
  ["Cc1cc(OCCCc2c(C)n(CCC(=O)O)c3cc(Cl)ccc23)cc(C)c1Cl", 5.10],
  ["Cc1cc(OCCCc2c(C)n(CCC(=O)O)c3c(-c4c(C)nn(C)c4C)cccc23)cc(C)c1Cl", 5.10],
  ["Cc1cc(OCCCc2c(C)n(Cc3ccc(C(=O)O)o3)c3c(-c4c(C)n[nH]c4C)cccc23)cc(C)c1Cl", 5.03]
]}

###

# Tested on: K562
# method description: Cellular proliferation, CellTiter-Glo, K562
# Assay type: cell-based
# condition notes: Homo sapiens, 10% FBS, 72 hours
Lab note: compare EC50 with 20 µM, writing yes (1) if less and no (0) if equal or more.

{"columns": ["molecule", "answer label"],
 "data": [
  ["Cc1cc(OCCCc2c(C)n(CCC(=O)O)c3c(-c4c(C)n[nH]c4C)cccc23)cc(C)c1Cl [Example 74]", "no (0)"],
  ["Cc1cc(OCCCc2c(C)n(CCC(=O)O)c3c(-c4c(C)nn(C)c4C)cccc23)cc(C)c1Cl [Example 76]", "yes (1)"],
  ["Cc1cc(OCCCc2c(C)n(CCC(=O)O)c3c(-c4c(C)nn(C(C)C)c4C)cccc23)cc(C)c1Cl [Example 78]", "yes (1)"],
  ["Cc1cc(OCCCc2c(C(F)(F)F)n(Cc3ccc(CC(=O)O)cc3)c3c(-c4c(C)nn(C)c4C)cccc23)cc(C)c1Cl [Example 117]", "yes (1)"],
  ["Cc1cc(OCCCc2c(C)n(CCC(=O)O)c3c(-c4c(C)nn(C)c4C)c(Cl)ccc23)cc(C)c1Cl [Example 104]", "no (0)"]
]}

###

# experimental system: recombinant Mcl-1 (residues 172-327) (Homo sapiens (Human), UniProt Q07820)
# Sequence (Q07820 172-327): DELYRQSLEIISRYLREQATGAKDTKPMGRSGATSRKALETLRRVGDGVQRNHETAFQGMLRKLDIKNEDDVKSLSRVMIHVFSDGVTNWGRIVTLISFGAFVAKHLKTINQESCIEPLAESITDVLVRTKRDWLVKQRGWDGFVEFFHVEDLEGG
# method description: Bak peptide binding assay, fluorescence polarization anisotropy competition (FITC-Bak), Mcl-1;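 note: displacement of labeled Bak peptide read by fluorescence anisotropy, 10-point threefold dilutions from 20 µM top dose in 5% DMSO, 90 min incubation at room temperature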
# condition notes: Table 3, binned ranges; FITC-Bak peptide 10 nM, Mcl-1 14 nM; read-out: Ki for inhibition of Mcl-1

{"columns": ["molecule", "Ki"],
 "data": [
  ["Cc1cc(OCCCc2cn(CCC(=O)O)c3c(Br)cccc23)cc(C)c1Cl [Example 29]", "301 to 500 nM"],
  ["CS(=O)(=O)NC(=O)Cn1cc(CCCOc2cccc3ccccc23)c2c(Cl)cccc21 [Example 28]", "1000 to 9990 nM"],
  ["Cc1cc(OCCCc2c(C)n(CCC(=O)NS(C)(=O)=O)c3c(-c4ccnn4C)cccc23)cc(C)c1Cl [Example 81]", "≤ 100 nM"],
  ["CS(=O)(=O)NC(=O)Cn1cc(CCCOc2cccc3ccccc23)c2ccccc21 [Example 24]", "1000 to 9990 nM"],
  ["Cc1cc(OCCCc2c(C)n(CCC(=O)NS(=O)(=O)c3ccc([N+](=O)[O-])cc3)c3c(-c4c(C)nn(C)c4C)cccc23)cc(C)c1Cl [Example 93]", "≤ 100 nM"],
  ["Cc1cc(OCCCc2cn(CCC(=O)O)c3c(-c4cc[nH]n4)cccc23)cc(C)c1Cl [Example 35]", "101 to 299 nM"],
  ["Cc1cc(OCCCc2cn(CCC(=O)O)c3c(-c4ccccc4)cccc23)cc(C)c1Cl [Example 31]", "301 to 500 nM"],
  ["Cc1cc(OCCCc2cn(CCC(=O)NS(C)(=O)=O)c3cc(Cl)ccc23)cc(C)c1Cl [Example 20]", "101 to 299 nM"]
]}

These measurements were taken from patent US10954193B2.
